- Test system: HCI-011.E2 (organoid from an ER-positive breast cancer xenograft)
- test: CTG-3D luminescence at 96 h relative to day-0 seeding control (ratio to day 0); higher = more growth / less cytotoxicity; PDxO 3D drug screen (set 2), 96 h, CTG-3D normalised to day-0 seeding control.
- conditions.used: 12.5 pM
Record form. Attribute: CTG-3D luminescence at 96 h. Fill in for each entry.
API note: the answer field is a bare number with no unit suffix.

IN: Any idea what CTG-3D luminescence at 96 h was measured for CC(=O)c1c(C)c2cnc(Nc3ccc(N4CCNCC4)cn3)nc2n(C2CCCC2)c1=O [palbociclib] ?
OUT: 1.41

IN: Now the compound CS(=O)(=O)CCNCc1ccc(-c2ccc3ncnc(Nc4ccc(OCc5cccc(F)c5)c(Cl)c4)c3c2)o1 [lapatinib]
OUT: 1.6

IN: Then what about the compound Nc1cc(C(F)(F)F)c(-c2cc(N3CCOCC3)nc(N3CCOCC3)n2)cn1 [buparlisib] ?
OUT: 1.59

IN: What about CCOc1ccn(-c2ccc(F)cc2)c(=O)c1C(=O)Nc1ccc(Oc2ccnc(N)c2Cl)c(F)c1 [ASLAN002] ?
OUT: 1.61

---

Assignment: determine reported CTG-3D luminescence at 96 h for the given compounds.
- Test system: HCI-017.E2 (organoid from an ER-positive breast cancer xenograft)
- test: CTG-3D luminescence at 96 h relative to day-0 seeding control (ratio to day 0); higher = more growth / less cytotoxicity; PDxO 3D drug screen, 96 h, CTG-3D normalised to day-0 seeding control.
- conditions.used: 0.005 µM

IN: I am curious: what CTG-3D luminescence at 96 h value has been reported for CN(Cc1cnc2nc(N)nc(N)c2n1)c1ccc(C(=O)N[C@@H](CCC(=O)O)C(=O)O)cc1 [methotrexate] ?
OUT: 2.14

IN: Same question, NC1(C(=O)N[C@@H](CCO)c2ccc(Cl)cc2)CCN(c2nc[nH]c3nccc2-3)CC1 [capivasertib] this time
OUT: 2.12

IN: Entry to check: CNC(=O)c1cccc(-c2ccc3c(N4CCOC[C@@H]4C)nc(N4CCOC[C@@H]4C)nc3n2)c1 [vistusertib]
OUT: 1.94

IN: Continue with CC1(C)CCC(c2ccc(Cl)cc2)=C(CN2CCN(c3ccc(C(=O)NS(=O)(=O)c4ccc(N[C@H](CCN5CCOCC5)CSc5ccccc5)c(S(=O)(=O)C(F)(F)F)c4)cc3)CC2)C1 [navitoclax]
OUT: 1.8

IN: And then O=C(/C=C/c1cccnc1)NCCCCC1CCN(C(=O)c2ccccc2)CC1 [FK866] , what is it?
OUT: 0.93

IN: Follow-up item: C=CC(=O)N1CCC[C@@H](n2nc(-c3ccc(Oc4ccccc4)cc3)c3c(N)ncnc32)C1 [ibrutinib]
OUT: 2.27

IN: Repeat for the following compound: NC(=O)Nc1cc(-c2cccc(F)c2)sc1C(=O)N[C@H]1CCCNC1 [AZD7762]
OUT: 2.23

---

Record form. Attribute: CTG-3D luminescence at 96 h. Fill in for each entry.
- System: HCI-025 (organoid from a breast cancer xenograft)
- test: CTG-3D luminescence at 96 h relative to day-0 seeding control (ratio to day 0); higher = more growth / less cytotoxicity; PDxO 3D drug screen, 96 h, CTG-3D normalised to day-0 seeding control.
- conditions.used: 0.1 µM; days in culture: 209
When you answer, write just the number.

IN: Form: Entry = CC(C)(C(=O)NCC(F)(F)C(F)(F)F)C(=O)N[C@@H]1C(=O)Nc2ccccc2-c2ccccc21 | System = HCI-025 | CTG-3D luminescence at 96 h = ____
OUT: 1.61

IN: Now consider O=C(O)C1(C(=O)O)CCC1.[NH2-].[NH2-].[Pt+2] [carboplatin] .
OUT: 1.49

IN: Same thing, different compound: NC(=O)c1cccc2cn(-c3ccc([C@@H]4CCCNC4)cc3)nc12 [niraparib]
OUT: 1.69

IN: Next entry: CNC(=O)c1cccc(-c2ccc3c(N4CCOC[C@@H]4C)nc(N4CCOC[C@@H]4C)nc3n2)c1 [vistusertib]
OUT: 0.89

IN: Also need CC1(C)CCC(c2ccc(Cl)cc2)=C(CN2CCN(c3ccc(C(=O)NS(=O)(=O)c4ccc(N[C@H](CCN5CCOCC5)CSc5ccccc5)c(S(=O)(=O)C(F)(F)F)c4)cc3)CC2)C1 [navitoclax] , thanks.
OUT: 1.27

IN: # repeat for C[C@]12CC[C@@H]3c4ccc(O)cc4C[C@@H](CCCCCCCCC[S+]([O-])CCCC(F)(F)C(F)(F)F)[C@H]3[C@@H]1CC[C@@H]2O (stereo partly drawn) [fulvestrant]
OUT: 1.66

IN: Same thing, different compound: O=C(c1ccc(F)c(F)c1Nc1ccc(I)cc1F)N1CC(O)([C@@H]2CCCCN2)C1 [cobimetinib]
OUT: 1.27

IN: Also, Cc1nc(-c2cn3c(n2)-c2ccc(-c4cnn(C(C)(C)C(N)=O)c4)cc2OCC3)n(C(C)C)n1 [taselisib] please.
OUT: 1.16

---

I'd be grateful if you could share measured CTG-3D luminescence at 96 h for these entries.
- Tested on: HCI-011.E2
- test: CTG-3D luminescence at 96 h relative to day-0 seeding control (ratio to day 0); higher = more growth / less cytotoxicity; PDxO 3D drug screen, 96 h, CTG-3D normalised to day-0 seeding control.
- conditions.used: 100 µM; days in culture: 74
Form field (numeric): enter value without unit.

IN: Entry CC1(C)CCC(c2ccc(Cl)cc2)=C(CN2CCN(c3ccc(C(=O)NS(=O)(=O)c4ccc(N[C@H](CCN5CCOCC5)CSc5ccccc5)c(S(=O)(=O)C(F)(F)F)c4)cc3)CC2)C1 has what CTG-3D luminescence at 96 h?
OUT: 0.137

IN: Do the same for CC(C)n1nc(-c2ccc3oc(N)nc3c2)c2c(N)ncnc21 please
OUT: 0.26

IN: Thanks! And NC(=O)c1cccc2cn(-c3ccc([C@@H]4CCCNC4)cc3)nc12 ?
OUT: 0.00301

IN: Ok, now C[C@H](NC(=O)CCC(F)(F)F)C(=O)N[C@@H]1C(=O)N(CCO)c2ncccc2-c2ccccc21
OUT: 2.45

IN: Cool, now CNC(=O)c1cccc(-c2ccc3c(N4CCOC[C@@H]4C)nc(N4CCOC[C@@H]4C)nc3n2)c1
OUT: 0.0598

IN: For CC(C)(C(=O)NCC(F)(F)C(F)(F)F)C(=O)N[C@@H]1C(=O)Nc2ccccc2-c2ccccc21 then?
OUT: 1.76

IN: Similarly, Nc1ccn([C@@H]2O[C@H](CO)[C@@H](O)C2(F)F)c(=O)n1 ?
OUT: 2.12

IN: Similarly, COc1cc2c(Oc3ccc4[nH]c(C)cc4c3F)ncnc2cc1OCCCN1CCCC1 ?
OUT: 0.0101

IN: // same read-out, input: C/C=C1\NC(=O)[C@H]2CSSCC/C=C/[C@H](CC(=O)N[C@H](C(C)C)C(=O)N2)OC(=O)[C@H](C(C)C)NC1=O
OUT: -0.0129

IN: What do you have for CS(=O)(=O)c1ccc(C(=O)Nc2ccc(Cl)c(-c3ccccn3)c2)c(Cl)c1 ?
OUT: 1.49

IN: Okay, and CN(Cc1cnc2nc(N)nc(N)c2n1)c1ccc(C(=O)N[C@@H](CCC(=O)O)C(=O)O)cc1 [methotrexate] ?
OUT: 2.24

IN: Now this one: NC1(C(=O)N[C@@H](CCO)c2ccc(Cl)cc2)CCN(c2nc[nH]c3nccc2-3)CC1
OUT: 0.307

---

- Tested on: HCI-027 (organoid from a triple-negative breast cancer xenograft)
- test: CTG-3D luminescence at 96 h relative to day-0 seeding control (ratio to day 0); higher = more growth / less cytotoxicity; PDxO 3D drug screen, 96 h, CTG-3D normalised to day-0 seeding control.
- conditions.used: 1 µM; days in culture: 201
We use 2 as the dividing line for CTG-3D luminescence at 96 h: on or above the line is class 1, below is class 0.

IN: // inclusive: CTG-3D luminescence at 96 h at least 2? input: O=C(/C=C/c1cccnc1)NCCCCC1CCN(C(=O)c2ccccc2)CC1 [FK866]
OUT: class 0

IN: Would you kindly repeat that for COc1cc2c(Oc3ccc4[nH]c(C)cc4c3F)ncnc2cc1OCCCN1CCCC1 [cediranib] ?
OUT: class 1

IN: Moving on to NC(=O)c1cccc2cn(-c3ccc([C@@H]4CCCNC4)cc3)nc12 [niraparib]
OUT: class 0

IN: Another compound: COc1cccc2c1C(=O)c1c(O)c3c(c(O)c1C2=O)C[C@@](O)(C(=O)CO)C[C@@H]3O[C@H]1C[C@H](N)[C@H](O)[C@H](C)O1 [doxorubicin]
OUT: class 0

IN: Please answer likewise for CCN(c1cc(C#CCN2CCOCC2)cc(C(=O)NCc2c(C)cc(C)[nH]c2=O)c1C)[C@H]1CC[C@H](N(C)CCOC)CC1
OUT: class 1

IN: Repeat with CC1(C)CCC(c2ccc(Cl)cc2)=C(CN2CCN(c3ccc(C(=O)NS(=O)(=O)c4ccc(N[C@H](CCN5CCOCC5)CSc5ccccc5)c(S(=O)(=O)C(F)(F)F)c4)cc3)CC2)C1 [navitoclax]
OUT: class 1
